- System: K4 kissing-loop RNA reporter;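 note: bound reporter read as fluorescence of individual clusters on recovered sequencing chips by microscopy, with normalized cluster intensities fitted with a binding model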
- experimentDescription: apparent KD of K4 kissing-loop reporter; higher = weaker reporter binding
- conditionDetails: Eterna round: R107; input ligand: none
// condition not met strictly below 300 nM in apparent KD of K4 kissing-loop reporter; condition met otherwise

Field: example entries. Status: answers known.
| sequenceString | group |
| --- | --- |
| AUUGCGGCCGUUCUAUCACCAGGCGGAGAUACCAGAUGCCAGCAGAUCCCUUGGCAGCUCUGCACGAGAUCCAGUGAUGUUGGGU [theeternabot_exclusion_KL_Theo_A_9] | condition met |
| GGUAGCAUGGCGGCCGCCACUCUAUGCGAGUGAUGUUCGCAGCUCAAAGAGCACCCGGGAACAGAGAGGACCGGGCCAUGCUACC | condition not met |
| UGACUGGACUGAAGGAGCGGGCGAGACAAAGUCUCGAACUCGUAGUGAUGUUAUGAAAUAACCCAGGUAGGUCGCAGUCUAGUCU | condition met |
| GUCCACACUGCAGGAUAUGGAGAAAUAGCGAGGGAGCUUGGAAGCACGCCUCUGGCAGUGAUGUUGCCAGAAGGGCGGUGCGGCG [Dilazasole] | condition not met |
| GAGAAUCUAAUUGAUACCAGAGUAAGAACCAGUGAUGUUGGAAGAUUCCCUAAUAAAUAACUCCCUUGGCAGCGGAAGAGAAUAG [Totally accidental 2] | condition not met |

For this sequence, is measured apparent KD of K4 kissing-loop reporter 300 nM or higher? AGUGUUAGGUUAGAUACCAGCCGUCUGUGGAUAAUCCACAGACCGCCAGUGAUGUUGGCAGGCCCUUGGCAGCUAACAGGACAGA [Riedingeus]
condition not met

For this sequence, is measured apparent KD of K4 kissing-loop reporter 300 nM or higher? AAUUUAUAUUUAUUCUUUAAAUGUUCAGAAGGAGCGUGAAUUAUCACAGGUAGGUCGCUGAGCUAGUGAUGUUAGCUAUAUACUA [JR_ExcArginiA_Sub007]
condition not met

For this sequence, is measured apparent KD of K4 kissing-loop reporter 300 nM or higher? GGAUAGGACUGAGGAUAUGGGCUAGGCAAGAAUAACUUGUCUAGCAAAUCCAUGAGGAGUGAUGUUCCAGAAGGCAGUCCUAUCG [FmnBX 1 U10+A76]
condition not met

====

- System: MS2 coat protein
- experimentDescription: apparent KD of MS2 coat protein; higher = weaker reporter binding
- conditionDetails: Eterna round: R107; input ligand: arginine 13.2 mM
resultType: apparent KD of MS2 coat protein (nM)
Please give a number only; it is taken to be in nM.

// solved cases for apparent KD of MS2 coat protein follow
| sequenceString | unitTag | recordedNumber |
| --- | --- | --- |
| GUAUACAUGAGGAUCACCCAUGUACCAGAAGGAGCGCUGGAAACAGCAGGUAGGUCGCUGGUAGGUCCUCUAUCUAGACGUUCUU [EAA NP+V+V2 #6] | nM | 40.5 |
| GCUAUGGCUAGAAGGAGCGUGAAUUUCAGAAAACAUGAGGAUCACCCAUGUAAGGAUAUGACACAGGUAGGUCGCUAGCCAUAGC [SSAB NP+V+V2 #19] | nM | 9.88 |

Entry under test: AUAAGUAAUGUUACGUGUUUAAUUGCAGAUACCAGACUAUACGUUGUCCCUUGGCAGCUGAAUUACAUGAGGAUCACCCAUGUUG [JR_ExcTheophyA_Sub005] . Its apparent KD of MS2 coat protein was 19.4
